Attribution: patent US20250361295A1

- experimental_target: human LILRB4 (human, UniProt Q8NHJ6 22-448)
- test_name: cell-based or functional assay
reported_property: FcγR stimulation (TNF-α, pg/mL)
Unit pg/mL implied. Number only.

- binder: "ch7-B4-C1-C9 (antibody, V domains shown) VH: EVQLQQSGTELVKPGASVKLSCKASGYTFTNYWMHWVKQRPGQGLEWIGEINPSNGRTNYNEKFKTKATLTVDKSSSTAYMQLSSLTSEDSAVYYCARSTYYGYDWYFDVWGAGTTVTVSS VL: DIVLTQSPSSMYASLGERVTITCKASQDINSYLSWFQQKPGKSPKTLIYRANRLLDGVPSRFSGGGSGQDYSLTISSLEHEDMGIYYCLQCDEFPHTFGGGTKLEIK"
  measure_unit: "pg/mL"
  FcγR stimulation (TNF-α, pg/mL): 415
- binder: "ch36-F4-H1-D9 (antibody, V domains shown) VH: EVKLLESGGGLVQPGGSLKLSCAASGFDFSRYWMIWVRQAPEKGLEWIGEINPDSSTINYTPSLKDKFIISRDNAKNTLYLQMSKVRSEDTALYYCARPYYRYDVGYFDVWGAGTTVTVSS VL: DIVMTQAPKVLLVSAGDRVTISCKASQSVSNAVVWYQQKPGQSPKLLIFYASNRYTGVPDRFTGSGYGTDFTFSISTVQAEDLAVYFCQQDYSSPWTFGGGTKLEIK"
  measure_unit: "pg/mL"
  FcγR stimulation (TNF-α, pg/mL): 543
- binder: "ch10-H9-E3-G3 (antibody, V domains shown) VH: EVQRVESGGGLVQPGGSRKLSCAASGFTFSSFGMHWVRQAPEKGLEWVAYISSGSSAMYYADTVKGRFTISRDNPKNTLFLQMTSLRSEDTAMYYCARSDGKGAMDYWGQGTSVTVSS VL: DIQMTQTTSSLSASLGDRVTISCRASQDISNYLNWYQQKPDGTVKLLVYYTSRLHSGVPSRFSGSGSGTDYSLTISNLEQEDIATYFCQQGNTLPWTFGGGTKLEIK"
  measure_unit: "pg/mL"
  FcγR stimulation (TNF-α, pg/mL): 389
- binder: "ch27-F11-E10-G10 (antibody, V domains shown) VH: EVQLVESGGGLVQPGGSRKLSCAASGFTFSSFGMHWVRQAPEKGLEWVAYISSGSSTIYYADTVKGRFSISRDNPKNTLFLQMTSLRSEDTAMFYCARSTGTGAMDYWGQGTSVTVSS VL: DIQMTQTTSSLSASLGDRVTISCRASQDISNYLNWYQQKPDGTVKLLIYYTSRLHSGVPSRFSGSGSGTDYSLTISNLEQEDIATYFCQQGNTLPWTFGGGTKLELK"
  measure_unit: "pg/mL"
  FcγR stimulation (TNF-α, pg/mL): 393
- binder: "ch43-D12-F3-G11 (antibody, V domains shown) VH: EVQVVESGPGLVAPSQSLSITCTVSGFSLTSYGVSWVRQPPGKGLEWLGVIWADGSTNYHSALLSRLSISKDNSKSQVFLKLNSLQTDDTATYYCAKGHWDGFAYWGQGTLVAVSA VL: DIVLTQSPAIMSTSPGEKVTLTCSASSSITSSYLYWYQQKPGSSPKLWIYSTSNLASGVPARFSGSGSGTSYYLTISSMEAEDAASYFCHQWSSYPPTFGGGTKLELK"
  measure_unit: "pg/mL"
  FcγR stimulation (TNF-α, pg/mL): 215
- binder: "ch25-G9-G4-C12 (antibody, V domains shown) VH: EVQLVESGGDLVKPGGSLKLSCAASGFTFSSHGMSWVRQTPDKRLEWVATINSGGYYTYYPDSVKGRFTISRDNAKNTLYLQMSSLKSEDTAMYYCARGQLGNWYFDVWGAGTTVTVSS VL: DIVMTQSPAIMSASPGEKVTITCSASSSVSYMHWFQQKPGTSPKLWIYSTSNLASGVPARFSGSGSGTSYSLTISRMEAEDAATYYCQQRSSYPLTFGAGTKLELK"
  measure_unit: "pg/mL"
  FcγR stimulation (TNF-α, pg/mL): 356
- binder: "ch27-D11-C2-A10 (antibody, V domains shown) VH: EVQLVESGGGLVQPGGSRKLSCAASGFTFSVFGVHWVRQAPEKGLEWVAYISSGSNTIHYADTVKGRFTISRDIPKNTLFLQMTSLRSEDTAMYYCARSSGTGAMDYWGQGTSVTVSS VL: DIQMTQSTSSLSASLGDRVSISCRASQDISNYLNWYQQKPDGAVKLLIYYTSRLHSGVPSRFSGSGSGTDYSLTISNLDQEDIATYFCQQGNTLPWTFGGGTKLELK"
  measure_unit: "pg/mL"
  FcγR stimulation (TNF-α, pg/mL): 666
- binder: "ch2-H8-C9-F7-E2 (antibody, V domains shown) VH: EVQLQQSGAELVKPGASVKLSCKASGYTFTNYWMHWVKQRPGQGLEWIGEINPSNGRTNYNEKFKSKATLTVDKSSSTAYMQLSSLTSEDSAVYYCARGSLTTVVPFDYWGQGTTLTVSS VL: DIQMTQTPSSLSASLGGKVTITCKASQDINNYIAWYQHKPGKGPRLLIHYTSTLQPGIPSRFSGSGSGRDYSFSISNLEPEDIATYFCLQYDILLTFGGGTKLEK"
  measure_unit: "pg/mL"
  FcγR stimulation (TNF-α, pg/mL): 310
- binder: "ch8-B3-F6-H8 (antibody, V domains shown) VH: EVKVIESGGGLVQPGGSLKLSCAASGFDFSRYWMSWVRQAPGKGLEWIGEINPDSSAINYTPSLKDKFIISRDNAKNTLYLQMSKVRSEDTALYYCATSMTMDYWGQGTSVTVSS VL: DIVMTQSPSSMYASLGERVTITCKASQDIKSYLSWYQQKPWKSPKTLIYYATSLADGVPSRFSGSGSGQDYSLTISSLESDDTATYYCLQHGESPYTFGGGTKLEK"
  measure_unit: "pg/mL"
  FcγR stimulation (TNF-α, pg/mL): 391

We now examine a further binder.
Just so you know, measured FcγR stimulation (TNF-α, pg/mL) for ch4-E6-E4-B12 (antibody, V domains shown) VH: EVQLKESGAELVKPGASVKLSCKASGYTFTSHWMHWVKQRPGQGLEWIGEINPSNGRTNYNEKFTSKATLTVDQSSSTAYMQLSSLTSEDSAVYYCARGNLTTVVPFDYWGQGTALTVSS VL: DIVMTQSPSSLSASLGGKVTITCKASQDINKFIAWYQHKPGKGPRLLIHFTSTLQPGIPSRFSGSGSGRDYSFSISNLEPEDIATYFCLQYDLLLTFGGGTKLEIK came out at 266
